Biological target: Cytochrome P450 2D6 (Homo sapiens, UniProt P10635)
Sequence (P10635 whole entry): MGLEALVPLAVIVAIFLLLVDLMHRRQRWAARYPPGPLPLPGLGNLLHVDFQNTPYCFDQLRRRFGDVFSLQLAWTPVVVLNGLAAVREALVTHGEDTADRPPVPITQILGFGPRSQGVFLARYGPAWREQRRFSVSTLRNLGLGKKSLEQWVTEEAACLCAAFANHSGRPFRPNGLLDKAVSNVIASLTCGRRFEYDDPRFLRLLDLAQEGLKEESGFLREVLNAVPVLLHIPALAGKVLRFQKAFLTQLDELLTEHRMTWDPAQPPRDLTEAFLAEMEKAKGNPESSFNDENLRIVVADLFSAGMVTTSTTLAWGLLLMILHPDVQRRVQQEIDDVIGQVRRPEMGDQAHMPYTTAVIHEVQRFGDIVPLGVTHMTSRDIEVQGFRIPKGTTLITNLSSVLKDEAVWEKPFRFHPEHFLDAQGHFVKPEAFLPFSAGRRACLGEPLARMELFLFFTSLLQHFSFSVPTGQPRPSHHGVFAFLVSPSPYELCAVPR
REPORTED PROPERTY: IC50

Dear colleague, I am looking for the recorded IC50 of the following molecule: `Cc1c2c(nn1-c1nnc(-c3ccc(OC(C)C)c(Cl)c3)s1)CCN(CCC(=O)O)C2` > 50 µM

----------
Assay: Clearance in beagle dog at 1 mg/kg, iv after 24 hrs by LC-MS/MS analysis
Assay type: ADME, organism-based, Canis lupus familiaris
Details: in vivo
REPORTED PROPERTY: clearance (mL/min/kg)
Answers are plain numbers, in mL/min/kg.

Dear colleague, I am looking for the recorded clearance of the following molecule: `Cc1c2c(nn1-c1nnc(-c3ccc(OC(C)C)c(Cl)c3)s1)CCN(CCC(=O)O)C2.Cl` 33

----------
Biological target: Sphingosine 1-phosphate receptor 1 (Homo sapiens)
Assay: Agonist activity at human S1P1 receptor expressed in CHO-K1 EDG1 cells by beta-arrestin recruitment assay
Type: cell-based
Assign EC50 to each entry below.
Give bare numbers, in nM.

CC(C)Oc1ccc(-c2nnc(-n3ncc4c3CCNC4)s2)cc1Cl; 794
Cc1c2c(nn1-c1nnc(-c3ccc(OC(C)C)c(Cl)c3)s1)CCNC2; 158
Cc1nn(-c2nnc(-c3ccc(OC(C)C)c(Cl)c3)s2)c(C)c1CCC(=O)O; 20
CC(C)Oc1ccc(-c2nnc(-n3cc4c(n3)CCNC4)s2)cc1Cl; 631
CC(C)Oc1ccc(-c2nnc(-n3cc4c(n3)CCNC4)s2)cc1C#N; 126

I need EC50 for every entry listed below, if you could help.
1. CC(C)Oc1ccc(-c2nnc(-n3cc4c(n3)CCN(CCCC(=O)O)C4)s2)cc1C#N
2. Cc1c2c(nn1-c1nnc(-c3ccc(OC(C)C)c(C#N)c3)s1)CCN(CCC(=O)O)C2
3. Cc1c2c(nn1-c1nnc(-c3ccc(OC(C)C)c(Cl)c3)s1)CCN(CCC(=O)O)C2
4. Cc1c2c(nn1-c1nnc(-c3ccc(OC(C)C)c(C#N)c3)s1)CNCC2
5. Cc1nn(-c2nnc(-c3ccc(OC(C)C)c(Cl)c3)s2)c(C)c1CC(=O)O
6. CC(C)Oc1ccc(-c2nnc(-n3cc4c(n3)CCN(CCC(=O)O)C4)s2)cc1Cl

6.31
3.16
1.58
158
1580
3.98

----------
Assay: Lipophilicity, log D of the compound at pH 2 by chromatography
Assay type: physicochemical
Conditions: buffer
REPORTED PROPERTY: chromatographic logD
One number for each entry.

Dear colleague, I am looking for the recorded chromatographic logD of the following molecule: `Cc1c2c(nn1-c1nnc(-c3ccc(OC(C)C)c(Cl)c3)s1)CCN(CCC(=O)O)C2` 1.03

----------
Test: Lipophilicity, log D of the compound at pH 7.4 by chromatography
Format: physicochemical
Details: buffer
REPORTED PROPERTY: chromatographic logD
One number for each entry.

The cases that follow already have their chromatographic logD on record.
CC(C)Oc1ccc(-c2nnc(-n3cc4c(n3)CCN(CCC(=O)O)C4)s2)cc1C#N; 2.58
CC(C)Oc1ccc(-c2nnc(-c3ccnn3C)s2)cc1Cl; 7.04
CC(C)Oc1ccc(-c2nnc(-c3cnn(CCN4CCOCC4)c3)s2)cc1Cl; 5.59
Cc1c(-c2noc(-c3ccc(OC(C)C)c(C#N)c3)n2)ccc2c1CCN(CCC(=O)O)C2; 3.41
CC(C)Oc1ccc(-c2nnc(-n3cc4c(n3)CCN(CCC(=O)O)C4)s2)cc1Cl; 3.26

I need chromatographic logD for every entry listed below, if you could help.
1. CC(C)Oc1ccc(-c2nnc(-n3cc4c(n3)CCN(CCCC(=O)O)C4)s2)cc1Cl
2. CC(C)Oc1ccc(-c2nnc(-n3cc4c(n3)CCNC4)s2)cc1C#N
3. Cc1c2c(nn1-c1nnc(-c3ccc(OC(C)C)c(Cl)c3)s1)CCNC2
4. CC(C)Oc1ccc(-c2nnc(-c3ccno3)s2)cc1Cl

3.56
3.37
5.32
6.93

----------
Test: Clearance in CD rat at 1 mg/kg, iv after 24 hrs by LC-MS/MS analysis
Format: ADME, organism-based
Settings: in vivo
REPORTED PROPERTY: clearance (mL/min/kg)
Give bare numbers, in mL/min/kg.

Dear colleague, I am looking for the recorded clearance of the following compound: `Cc1c2c(nn1-c1nnc(-c3ccc(OC(C)C)c(Cl)c3)s1)CCN(CCC(=O)O)C2.O=C(O)C(F)(F)F` 24

----------
Molecular target: UniProtKB P08684
Sequence (P08684 whole entry): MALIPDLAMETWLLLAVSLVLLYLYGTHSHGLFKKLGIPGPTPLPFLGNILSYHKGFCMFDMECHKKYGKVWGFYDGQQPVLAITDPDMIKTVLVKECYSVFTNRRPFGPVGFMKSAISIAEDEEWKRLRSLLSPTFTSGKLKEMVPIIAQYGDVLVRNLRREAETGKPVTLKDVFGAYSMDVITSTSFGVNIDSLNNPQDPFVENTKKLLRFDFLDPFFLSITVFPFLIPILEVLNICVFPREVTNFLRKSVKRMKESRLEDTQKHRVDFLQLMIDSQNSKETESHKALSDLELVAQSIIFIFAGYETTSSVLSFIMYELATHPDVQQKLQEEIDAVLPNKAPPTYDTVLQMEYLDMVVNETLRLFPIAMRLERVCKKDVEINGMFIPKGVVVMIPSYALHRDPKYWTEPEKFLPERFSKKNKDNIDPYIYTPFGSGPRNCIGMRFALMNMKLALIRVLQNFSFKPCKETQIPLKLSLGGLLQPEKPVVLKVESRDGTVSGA
Test: Inhibition of human CYP3A4 by VR metabolism assay
Format: ADME
pIC50: −log10 of the molar value.
REPORTED PROPERTY: pIC50

Dear colleague, I am looking for the recorded pIC50 of the following molecule: `Cc1c2c(nn1-c1nnc(-c3ccc(OC(C)C)c(Cl)c3)s1)CCN(CCC(=O)O)C2` < 4.30

----------
Target: Sphingosine 1-phosphate receptor 1 (Homo sapiens, UniProt P21453)
Sequence (P21453 whole entry): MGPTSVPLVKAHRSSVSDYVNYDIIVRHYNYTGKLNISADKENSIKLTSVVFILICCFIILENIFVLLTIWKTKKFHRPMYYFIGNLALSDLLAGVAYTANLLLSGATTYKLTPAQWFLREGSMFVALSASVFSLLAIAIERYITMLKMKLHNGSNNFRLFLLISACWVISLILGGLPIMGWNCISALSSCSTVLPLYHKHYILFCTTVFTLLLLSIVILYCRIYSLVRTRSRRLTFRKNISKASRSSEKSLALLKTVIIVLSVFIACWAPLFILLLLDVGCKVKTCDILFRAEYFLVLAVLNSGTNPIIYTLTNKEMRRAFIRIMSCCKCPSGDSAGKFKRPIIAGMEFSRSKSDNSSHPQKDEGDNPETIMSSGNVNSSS
Experiment: Agonist activity at human S1P1 receptor expressed in RH7777 cells by [35S]GTP-gammaS accumulation assay
Assay type: cell-based
Assign EC50 to each entry below.
Numbers only, in nM.

The cases that follow already have their EC50 on record.
Cc1[nH]ncc1-c1nnc(-c2ccc(OC(C)C)c(Cl)c2)s1; 126
Cc1c2c(nn1-c1nnc(-c3ccc(OC(C)C)c(Cl)c3)s1)CCNC2; 126

Turning now to a further record.
Dear colleague, I am looking for the recorded EC50 of the following molecule: `Cc1c2c(nn1-c1nnc(-c3ccc(OC(C)C)c(C#N)c3)s1)CCNC2` 100

----------
Molecular target: UniProtKB P21453
Experiment: Agonist activity at human S1P1 receptor expressed in CHO-K1 EDG1 cells by beta-arrestin recruitment assay
Type: cell-based
Assign EC50 to each entry below.
Answers are plain numbers, in nM.

Cc1c2c(nn1-c1nnc(-c3ccc(OC(C)C)c(C#N)c3)s1)CCN(CC(=O)O)C2; 100

I need EC50 for every entry listed below, if you could help.
1. Cc1c(-c2noc(-c3ccc(OC(C)C)c(C#N)c3)n2)ccc2c1CCN(CCC(=O)O)C2
2. CC(C)Oc1ccc(-c2nnc(-n3cc4c(n3)CCN(CCCC(=O)O)C4)s2)cc1Cl
3. CC(C)Oc1ccc(-c2nnc(-n3ncc4c3CCN(CCC(=O)O)C4)s2)cc1Cl
4. Cc1c2c(nn1-c1nnc(-c3ccc(OC(C)C)c(C#N)c3)s1)CCNC2
5. CC(C)Oc1ccc(-c2nnc(-n3cc4c(n3)CCN(CCC(=O)O)C4)s2)cc1C#N

[5.01, 5.01, 50.1, 63.1, 5.01]

----------
Assay: Lipophilicity, log D of the compound at pH 7.4 by chromatography
Assay type: physicochemical
Conditions: buffer
Rule: chromatographic logD below 4 gives 1, anything at or above gives -1.

I wonder whether `CC(C)Oc1ccc(-c2nnc(-n3ncc4c3CCNC4)s2)cc1Cl` has chromatographic logD below 4. Can you tell? -1

What do you have for `Cc1nn(-c2nnc(-c3ccc(OC(C)C)c(Cl)c3)s2)c(C)c1CC(=O)O` ? 1

What do you have for `CC(C)Oc1ccc(-c2nnc(-c3cnn(CC(=O)O)c3)s2)cc1Cl` ? 1

What do you have for `Cc1c2c(nn1-c1nnc(-c3ccc(OC(C)C)c(C#N)c3)s1)CCN(CCC(=O)O)C2` ? 1

What do you have for `Cc1c(-c2nnc(-c3ccc(OC(C)C)c(Cl)c3)s2)cnn1CCC(=O)O` ? 1

What do you have for `CC(C)Oc1ccc(-c2nnc(-n3cc4c(n3)CCN(CCCC(=O)O)C4)s2)cc1C#N` ? 1

----------
Assay: Lipophilicity, log D of the compound at pH 7.4 by chromatography
Type: physicochemical
Details: buffer
# chromatographic logD >= 4 gives MET, anything below gives NOT MET

Please review the following examples before continuing.
CC(C)Oc1ccc(-c2nnc(-c3cncn3C)s2)cc1Cl; MET
Cc1[nH]ncc1-c1nnc(-c2ccc(OC(C)C)c(Cl)c2)s1; MET
Cc1nc(C)c(-c2nnc(-c3ccc(OC(C)C)c(Cl)c3)s2)s1; MET
Cc1c2c(nn1-c1nnc(-c3ccc(OC(C)C)c(C#N)c3)s1)CCNC2; NOT MET
CC(C)Oc1ccc(-c2nnc(-c3ccccc3)s2)cc1Cl; MET

Does the reported chromatographic logD for `CC(C)Oc1ccc(-c2nnc(-n3ncc4c3CCN(CCC(=O)O)C4)s2)cc1Cl` fall at or above the 4 mark? NOT MET

What do you have for `Cc1nn(-c2nnc(-c3ccc(OC(C)C)c(Cl)c3)s2)c(C)c1CCC(=O)O` ? MET

What do you have for `CC(C)Oc1ccc(-c2nnc(-c3cn[nH]c3)s2)cc1Cl` ? MET

What do you have for `Cc1c2c(nn1-c1nnc(-c3ccc(OC(C)C)c(Cl)c3)s1)CCN(CCC(=O)O)C2` ? NOT MET

What do you have for `Cc1c2c(nn1-c1nnc(-c3ccc(OC(C)C)c(C#N)c3)s1)CNCC2` ? MET

What do you have for `Cc1c2c(nn1-c1nnc(-c3ccc(OC(C)C)c(C#N)c3)s1)CCN(CC(=O)O)C2` ? NOT MET

What do you have for `CC(C)Oc1ccc(-c2nnc(-n3cc4c(n3)CCNC4)s2)cc1Cl` ? MET

What do you have for `CC(C)Oc1ccc(-c2nnc(-n3cncn3)s2)cc1Cl` ? MET
